Ref: the supplement of paper PMC10057847

Task for the reader: assign each of the following variants its reported basal output G0 (log10).
B1: library; the commonest letter at each place (parent)
chain: MKPVTLYDVAEYAGVSYQTVSRVVNQASHVSAKTREKVEAAMAELNYIPNRVAQQLAGKQSLLIGVATSSLALHAPSQIVAAIKSRADQLGASVVVSMVERSGVEACKAAVHNLLAQRVSGLIINYPLDDQDAIAVEAACTNVPALFLDVSDQTPINSIIFSHEDGTRLGVEHLVALGHQQIALLAGPLSSVSARLRLAGWHKYLTRNQIQPIAEREGDWSAMSGFQQTMQMLNEGIVPTAMLVANDQMALGAMRAITESGLRVGADISVVGYDDTEDSSCYIPPLTTIKQDFRLLGQTSVDRLLQLSQGQAVKGNQLLPVSLVKRKTTLAPNTQTASPRALADSLMQLARQVSRLESGQ

Variants of: B1
assay.summary: basal output G0 (YFP, no IPTG) (log10 MEF); higher = higher reporter expression without inducer
reported.conditions: with IPTG

V80L V96E T154I S158R V238D M254I V264I
4.21
V136E S279T
3.92
K84E D88Y L90P Q153L A199V L342M R351P S358R
4.34
V80L A87P V301M E357G
4.52
L56M A194V
3.9

Field: basal output G0 (log10). Fill in for each record below.
1. V80L L169P
2. I160N R263S L305Q
3. S97T V136E

1. 1.86
2. 1.14
3. 3.05
